Tested on: NCI-H1975
Test: relative viability (nuclei count vs DMSO), 5 days (fraction); higher = more cells survive
Details: first compound 0.3162 µM
ENDPOINT_LABEL: relative viability
Answers are plain numbers.

- MOLECULE: "O=c1cc(N2CCOCC2)oc2c(-c3cccc4c3sc3ccccc34)cccc12 + NC(=O)Nc1cc(-c2cccc(F)c2)sc1C(=O)N[C@H]1CCCNC1 [AZD7762] (partner 0.2 µM)"
  relative viability: 0.808
- MOLECULE: "O=c1cc(N2CCOCC2)oc2c(-c3cccc4c3sc3ccccc34)cccc12 + CC1(C)CCC(c2ccc(Cl)cc2)=C(CN2CCN(c3ccc(C(=O)NS(=O)(=O)c4ccc(N[C@H](CCN5CCOCC5)CSc5ccccc5)c(S(=O)(=O)C(F)(F)F)c4)cc3)CC2)C1 [Navitoclax] (partner 0.5 µM)"
  relative viability: 0.985

For every item in the list below, what is its measured relative viability?
1. CCN(CC)CCCCNc1ncc2cc(-c3cc(OC)cc(OC)c3)c(NC(=O)NC(C)(C)C)nc2n1 + C[C@@H](Oc1cc(-c2cnn(C3CCNCC3)c2)cnc1N)c1c(Cl)ccc(F)c1Cl [Crizotinib] (partner 1 µM)
2. O=c1cc(N2CCOCC2)oc2c(-c3cccc4c3sc3ccccc34)cccc12 + O=C(c1cc(Cc2n[nH]c(=O)c3ccccc23)ccc1F)N1CCN(C(=O)C2CC2)CC1 [Olaparib] (partner 8 µM)

stdout:
1. 0.94
2. 0.82

---

What relative viability was measured for each of the following?
Test system: SW 1573
Experiment: relative viability (nuclei count vs DMSO), 5 days (fraction); higher = more cells survive
Details: first compound 0.03162 µM
One number for each entry.

# example entries with known answers
- COMPOUND: "O=c1cc(N2CCOCC2)oc2c(-c3cccc4c3sc3ccccc34)cccc12 + Nc1ncn([C@H]2C[C@H](O)[C@@H](CO)O2)c(=O)n1 [Decitabine] (partner 2 µM)"
  TARGET_OR_TEST_SYSTEM: "SW 1573"
  relative viability: 0.577
- COMPOUND: "O=c1cc(N2CCOCC2)oc2c(-c3cccc4c3sc3ccccc34)cccc12 + Cc1nc(Nc2ncc(C(=O)Nc3c(C)cccc3Cl)s2)cc(N2CCN(CCO)CC2)n1 [Dasatinib] (partner 0.075 µM)"
  TARGET_OR_TEST_SYSTEM: "SW 1573"
  relative viability: 0.482
- COMPOUND: "O=c1cc(N2CCOCC2)oc2c(-c3cccc4c3sc3ccccc34)cccc12 + CC(=O)c1c(C)c2cnc(Nc3ccc(N4CCNCC4)cn3)nc2n(C2CCCC2)c1=O [Palbociclib] (partner 0.5 µM)"
  TARGET_OR_TEST_SYSTEM: "SW 1573"
  relative viability: 0.436
- COMPOUND: "CCN(CC)CCCCNc1ncc2cc(-c3cc(OC)cc(OC)c3)c(NC(=O)NC(C)(C)C)nc2n1 + Nc1ncn([C@H]2C[C@H](O)[C@@H](CO)O2)c(=O)n1 [Decitabine] (partner 2 µM)"
  TARGET_OR_TEST_SYSTEM: "SW 1573"
  relative viability: 0.528
- COMPOUND: "CCN(CC)CCCCNc1ncc2cc(-c3cc(OC)cc(OC)c3)c(NC(=O)NC(C)(C)C)nc2n1 + Cc1cc(Nc2cc(N3CCN(C)CC3)nc(Sc3ccc(NC(=O)C4CC4)cc3)n2)n[nH]1 [Tozasertib] (partner 0.1 µM)"
  TARGET_OR_TEST_SYSTEM: "SW 1573"
  relative viability: 0.148
- COMPOUND: "CCN(CC)CCCCNc1ncc2cc(-c3cc(OC)cc(OC)c3)c(NC(=O)NC(C)(C)C)nc2n1 + COc1cc2c(Oc3ccc(NC(=O)C4(C(=O)Nc5ccc(F)cc5)CC4)cc3F)ccnc2cc1OCCCN1CCOCC1 [Foretinib] (partner 0.25 µM)"
  TARGET_OR_TEST_SYSTEM: "SW 1573"
  relative viability: 0.878
- COMPOUND: "CCN(CC)CCCCNc1ncc2cc(-c3cc(OC)cc(OC)c3)c(NC(=O)NC(C)(C)C)nc2n1 + C[C@]1(O)C[C@@H](c2nc(-c3ccc4ccc(-c5ccccc5)nc4c3)c3c(N)nccn32)C1 [Linsitinib] (partner 1 µM)"
  TARGET_OR_TEST_SYSTEM: "SW 1573"
  relative viability: 0.785
- COMPOUND: "CCN(CC)CCCCNc1ncc2cc(-c3cc(OC)cc(OC)c3)c(NC(=O)NC(C)(C)C)nc2n1 + O=C(c1cc(Cc2n[nH]c(=O)c3ccccc23)ccc1F)N1CCN(C(=O)C2CC2)CC1 [Olaparib] (partner 8 µM)"
  TARGET_OR_TEST_SYSTEM: "SW 1573"
  relative viability: 0.551

stdin: Given O=c1cc(N2CCOCC2)oc2c(-c3cccc4c3sc3ccccc34)cccc12 + N=C(N)NC(=N)NCCc1ccccc1 [Phenformin] (partner 250 µM) , state its recorded relative viability.
stdout: 0.395

---

What relative viability was measured for each of the following?
System: LOU-NH91
Assay: relative viability (nuclei count vs DMSO), 5 days (fraction); higher = more cells survive
Settings: first compound 0.6325 µM
Numbers only.

For every item in the list below, what is its measured relative viability?
1. COCC1(CO)C(=O)C2CCN1CC2 (stereo not drawn) [PRIMA-1MET] + CS(=O)(=O)CCNCc1ccc(-c2ccc3ncnc(Nc4ccc(OCc5cccc(F)c5)c(Cl)c4)c3c2)o1 [Lapatinib] (partner 2 µM)
2. COCC1(CO)C(=O)C2CCN1CC2 (stereo not drawn) [PRIMA-1MET] + Cc1nc(NC(=O)N2CCC[C@H]2C(N)=O)sc1-c1ccnc(C(C)(C)C(F)(F)F)c1 [Alpelisib] (partner 2 µM)
3. COCC1(CO)C(=O)C2CCN1CC2 (stereo not drawn) [PRIMA-1MET] + CC(=O)c1c(C)c2cnc(Nc3ccc(N4CCNCC4)cn3)nc2n(C2CCCC2)c1=O [Palbociclib] (partner 0.5 µM)

stdout:
0.715
0.652
0.514

---

What relative viability was measured for each of the following?
System: COR-L23
Experiment: relative viability (nuclei count vs DMSO), 5 days (fraction); higher = more cells survive
Conditions: first compound 0.01 µM
Give bare numbers.

# example entries with known answers
- COMPOUND: "O=c1cc(N2CCOCC2)oc2c(-c3cccc4c3sc3ccccc34)cccc12 + Nc1ncn([C@H]2C[C@H](O)[C@@H](CO)O2)c(=O)n1 [Decitabine] (partner 2 µM)"
  TARGET_OR_TEST_SYSTEM: "COR-L23"
  relative viability: 0.515
- COMPOUND: "O=c1cc(N2CCOCC2)oc2c(-c3cccc4c3sc3ccccc34)cccc12 + C[C@@H](Oc1cc(-c2cnn(C3CCNCC3)c2)cnc1N)c1c(Cl)ccc(F)c1Cl [Crizotinib] (partner 1 µM)"
  TARGET_OR_TEST_SYSTEM: "COR-L23"
  relative viability: 0.62

stdin: Given CCN(CC)CCCCNc1ncc2cc(-c3cc(OC)cc(OC)c3)c(NC(=O)NC(C)(C)C)nc2n1 + CC(=O)c1c(C)c2cnc(Nc3ccc(N4CCNCC4)cn3)nc2n(C2CCCC2)c1=O [Palbociclib] (partner 0.5 µM) , state its recorded relative viability.
stdout: 0.291

---

Test system: NCI-H522
Experiment: relative viability (nuclei count vs DMSO), 5 days (fraction); higher = more cells survive
Conditions: first compound 0.08 µM
ENDPOINT_LABEL: relative viability
Give bare numbers.

# example entries with known answers
- COMPOUND: "O=c1cc(-c2cccc3c2Sc2ccccc2S3)oc(N2CCOCC2)c1 + NC(=O)Nc1cc(-c2cccc(F)c2)sc1C(=O)N[C@H]1CCCNC1 [AZD7762] (partner 0.2 µM)"
  relative viability: 0.821
- COMPOUND: "COc1nc(C)cnc1NS(=O)(=O)c1cccnc1-c1ccc(-c2nnco2)cc1 [Zibotentan] + O=C(c1cc(Cc2n[nH]c(=O)c3ccccc23)ccc1F)N1CCN(C(=O)C2CC2)CC1 [Olaparib] (partner 8 µM)"
  relative viability: 0.65
- COMPOUND: "O=c1cc(-c2cccc3c2Sc2ccccc2S3)oc(N2CCOCC2)c1 + N=C(N)NC(=N)NCCc1ccccc1 [Phenformin] (partner 250 µM)"
  relative viability: 0.56
- COMPOUND: "COc1nc(C)cnc1NS(=O)(=O)c1cccnc1-c1ccc(-c2nnco2)cc1 [Zibotentan] + CCNC(=O)c1noc(-c2cc(C(C)C)c(O)cc2O)c1-c1ccc(CN2CCOCC2)cc1 [Luminespib] (partner 0.01 µM)"
  relative viability: 1.26
- COMPOUND: "O=c1cc(-c2cccc3c2Sc2ccccc2S3)oc(N2CCOCC2)c1 + CC(=O)c1c(C)c2cnc(Nc3ccc(N4CCNCC4)cn3)nc2n(C2CCCC2)c1=O [Palbociclib] (partner 0.5 µM)"
  relative viability: 1.13

For every item in the list below, what is its measured relative viability?
1. COc1nc(C)cnc1NS(=O)(=O)c1cccnc1-c1ccc(-c2nnco2)cc1 [Zibotentan] + CC(=O)Nc1cccc(-n2c(=O)n(C3CC3)c(=O)c3c(Nc4ccc(I)cc4F)n(C)c(=O)c(C)c32)c1 [Trametinib] (partner 0.02 µM)
2. COc1nc(C)cnc1NS(=O)(=O)c1cccnc1-c1ccc(-c2nnco2)cc1 [Zibotentan] + CC(=O)c1c(C)c2cnc(Nc3ccc(N4CCNCC4)cn3)nc2n(C2CCCC2)c1=O [Palbociclib] (partner 0.5 µM)
3. COc1nc(C)cnc1NS(=O)(=O)c1cccnc1-c1ccc(-c2nnco2)cc1 [Zibotentan] + Cc1cc(Nc2cc(N3CCN(C)CC3)nc(Sc3ccc(NC(=O)C4CC4)cc3)n2)n[nH]1 [Tozasertib] (partner 0.1 µM)
4. COc1nc(C)cnc1NS(=O)(=O)c1cccnc1-c1ccc(-c2nnco2)cc1 [Zibotentan] + O=C(CCCCCCC(=O)Nc1ccccc1)NO [Vorinostat] (partner 1 µM)

stdout:
0.732
0.981
0.573
0.928
